For reference, the following IC50 results for human DGAT2 (hDGAT2) (Homo sapiens) were taken from various sources.
Lab note: compare IC50 with 70 nM, writing true if less and false if equal or more.

Field: below-cutoff. Rule: recorded IC50 strictly less than 70 nM. Subject: CC1(NC(=O)c2cn3nc(OCc4ncc(Cl)cc4OCC(F)F)ccc3n2)CCS(=O)(=O)CC1 true

Field: below-cutoff. Rule: recorded IC50 strictly less than 70 nM. Subject: CCOc1cc(Cl)cnc1Oc1ccc2nc(C(=O)NC3(C)CCS(=O)(=O)CC3)cn2c1C true

Field: below-cutoff. Rule: recorded IC50 strictly less than 70 nM. Subject: CC(C)(C)NC(=O)N1CCc2c(-c3cccc(-c4ncon4)c3)ccc(CNC(=O)C3C[C@H]3c3ccccc3)c2C1 (stereo partly shown) true

Field: below-cutoff. Rule: recorded IC50 strictly less than 70 nM. Subject: COC(=O)c1cccc(-c2ccc(CNC(=O)C3CC3c3ccccc3)c3c2CCN(Cc2cccnc2)C3)c1 (stereo not shown) false

Field: below-cutoff. Rule: recorded IC50 strictly less than 70 nM. Subject: Cc1cn2nc(C(=O)NC3(C)CCS(=O)(=O)CC3)cc2cc1Oc1ncc(F)cc1OCC(F)(F)F true

Field: below-cutoff. Rule: recorded IC50 strictly less than 70 nM. Subject: COCC(C)NC(=O)c1ccc2c(-c3ccccc3Cl)cn(-c3ccc(F)cc3)c2c1 (racemic) false

----------
For reference, the following IC50 results for human DGAT2 (hDGAT2) (Homo sapiens, UniProt Q96PD7) were taken from various sources.
Please make sure the unit comes right after the number.

human DGAT2 (hDGAT2) (Homo sapiens, UniProt Q96PD7) assay, molecule Cc1c(C(=O)NC2CCS(=O)(=O)C(C)(C)C2)nc2ccc(Oc3ncc(F)cc3OCC(F)F)cn12 (stereo not shown) , recorded IC50 = 2.9 nM

human DGAT2 (hDGAT2) (Homo sapiens, UniProt Q96PD7) assay, molecule CC1(NC(=O)c2nn3ccc(Oc4ncccc4OCC(F)(F)F)cc3c2Cl)CS(=O)(=O)C1 , recorded IC50 = 30 nM

human DGAT2 (hDGAT2) (Homo sapiens, UniProt Q96PD7) assay, molecule CC(NC(=O)c1ccc(-c2cccc(OC(F)(F)F)c2)c2c1CN(C(=O)NC(C)(C)C)CC2)c1nc(-c2ccccn2)no1 (stereo not shown) , recorded IC50 = 511 nM

human DGAT2 (hDGAT2) (Homo sapiens, UniProt Q96PD7) assay, molecule Cc1nnc(CCNC(=O)c2ccc(-c3cccc(C(F)(F)F)c3)c3c2CN(C(=O)NC(C)(C)C)CC3)[nH]1 , recorded IC50 = 1350 nM

human DGAT2 (hDGAT2) (Homo sapiens, UniProt Q96PD7) assay, molecule COC(=O)c1cccc(-c2ccc(CNC(=O)C3CC3c3ccccc3)c3c2CCN(C(=O)C2CCC(C)CC2)C3)c1 (stereo not shown) , recorded IC50 = 3340 nM

human DGAT2 (hDGAT2) (Homo sapiens, UniProt Q96PD7) assay, molecule CC1(NC(=O)c2cc3cc(Oc4ncc(F)cc4OCC(F)(F)F)ccn3n2)CS(=O)(=O)C1 , recorded IC50 = 72 nM

human DGAT2 (hDGAT2) (Homo sapiens, UniProt Q96PD7) assay, molecule CC1(NC(=O)c2cn3cc(Oc4ncccc4OCC(F)(F)F)cc(F)c3n2)CCS(=O)(=O)CC1 , recorded IC50 = 4.7 nM
